- Test system: IGROV1 complex spheroids (HUVEC, MSC), viability % test/control
- Measurement protocol: Anticancer human tumor IGROV1 cell line growth inhibition [GQUAD];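 note: spheroids exposed to compounds for 7 days before readout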
- Assay conditions: second compound 3.16 µM; first compound 3.16 µM; hits give low values
Cut-off 3% on viability, T/C: below means y, at or above means n.

Use these answered entries as a reference point.
Compound	Assigned category
CC(C)(O)C1CCC(Nc2ccc3ncc(-c4cccc(C(F)(F)F)c4)n3n2)CC1 (stereo unspecified) + Cc1[nH]c2ccc(F)cc2c1-c1nc2c3cccnc3c3ncccc3c2[nH]1	y
O=C(NO)c1cnc(N2CCN(S(=O)(=O)c3ccc4ccccc4c3)CC2)nc1 + CN(C)c1ccc(Nc2c3ccc(NC(=O)CCN4CCCC4)cc3nc3cc(NC(=O)CCN4CCCC4)ccc23)cc1	y

Is it true that viability, T/C reported for CC(C)n1c(=O)n(C)c2cnc3cc(F)c(-c4ccc(OCCCN5CCCCC5)nc4)cc3c21 + Cc1cnc(CNC(=O)c2c(=O)c3ccc(N4CCCN(C)CC4)nc3n3c2sc2ccccc23)cn1 is less than 3%?
n

Is it true that viability, T/C reported for Nc1ccn(C2OC(CO)C(O)C2(F)F)c(=O)n1 (stereo unspecified) + Cc1cnc(CNC(=O)c2c(=O)c3ccc(N4CCCN(C)CC4)nc3n3c2sc2ccccc23)cn1 is less than 3%?
n

Is it true that viability, T/C reported for O=C(c1cc(Cc2n[nH]c(=O)c3ccccc23)ccc1F)N1CCN(C(=O)C2CC2)CC1 + Cc1[nH]c2ccc(F)cc2c1-c1nc2c3cccnc3c3ncccc3c2[nH]1 is less than 3%?
n

Is it true that viability, T/C reported for COc1ccc([C@@H](O)c2cc(-c3ncnc4cc(N5CCOCC5)ccc34)c(F)cc2Cl)nn1 + Cc1cnc(CNC(=O)c2c(=O)c3ccc(N4CCCN(C)CC4)nc3n3c2sc2ccccc23)cn1 is less than 3%?
n
